# Assay Remarks: Toxicity liver stage against HepG2, at 10uM
# Type: cell-based
# Design: test concentration 10 uM, cell line HepG2-A16-CD81EGFP
# Recorded Conditions: human, HepG2-A16-CD81EGFP cells; read-out: INHIBITION
Quantity Kind: cytotoxicity at 10 µM (%)
Numbers only; they are read as %.

[
  {
    "Compound": "Cc1cc(F)ccc1-c1ccccc1CC1CNCCNC1=O (configuration not stated)",
    "Quantity Kind": "cytotoxicity at 10 µM",
    "Readout Number": 5.08
  },
  {
    "Compound": "C=C(C)COc1ccccc1CN1CCC(C(=O)NCC)C1 (configuration not stated)",
    "Quantity Kind": "cytotoxicity at 10 µM",
    "Readout Number": 11.6
  },
  {
    "Compound": "O=S1(=O)COCCN1Cc1cccc(Cl)c1",
    "Quantity Kind": "cytotoxicity at 10 µM",
    "Readout Number": -11.4
  },
  {
    "Compound": "Cc1cn2c(n1)CCC(NC(=O)c1oc(Br)cc1C)C2 (configuration not stated)",
    "Quantity Kind": "cytotoxicity at 10 µM",
    "Readout Number": -20.8
  },
  {
    "Compound": "O=C(NCc1cc[nH]n1)N1CCCC(N2CCCC2)C1 (configuration not stated)",
    "Quantity Kind": "cytotoxicity at 10 µM",
    "Readout Number": -3.18
  }
]

Find the measured cytotoxicity at 10 µM of O=C(CC1COCCN1S(=O)(=O)c1ccccc1)NCc1ccccn1 (configuration not stated) and report it.
4.48

Find the measured cytotoxicity at 10 µM of "CC(C)c1noc(CCCC(=O)NCCOc2ccccc2)n1" and report it.
1.03

Find the measured cytotoxicity at 10 µM of "CO[C@H]1CC[C@H]2[C@H]1OCCN2C(=O)CC1=CCCCC1" and report it.
5.28

###

# Assay Remarks: Toxicity liver stage against HepG2, at 10uM
# Format: cell-based
# Design: test concentration 10 uM, cell line HepG2-A16-CD81EGFP
# Recorded Conditions: human, HepG2-A16-CD81EGFP cells; read-out: INHIBITION
Collected cytotoxicity at 10 µM values appear next to each entry.
Could you write the number and then its unit?

[
  {
    "Molecule": "COc1ccc(C2Nc3cc(Cl)ccc3C3=NCCN32)cc1OC (stereo unspecified)",
    "Quantity Kind": "cytotoxicity at 10 µM",
    "Result": "1.05%"
  },
  {
    "Molecule": "CC(C)NC(=O)c1cc(-c2ccc(S(C)(=O)=O)cc2)c2cnn(C)c2n1",
    "Quantity Kind": "cytotoxicity at 10 µM",
    "Result": "8.3%"
  },
  {
    "Molecule": "Cc1ccc(C)c(CN2CCOC(c3noc(C)n3)C2)c1 (stereo unspecified)",
    "Quantity Kind": "cytotoxicity at 10 µM",
    "Result": "5.12%"
  },
  {
    "Molecule": "Cc1ocnc1C(=O)N1CCC2(CC1)c1nc[nH]c1CCN2CC(C)C",
    "Quantity Kind": "cytotoxicity at 10 µM",
    "Result": "-11.4%"
  },
  {
    "Molecule": "Cc1nn(C)c(C)c1-c1cnc(C2CCCN(C)C2)cn1 (stereo unspecified)",
    "Quantity Kind": "cytotoxicity at 10 µM",
    "Result": "-8.8%"
  }
]

With those in mind, consider the next molecule.
Find the measured cytotoxicity at 10 µM of COC(CNC(=O)c1cn(C)nn1)c1ccccc1C (stereo unspecified) and report it.
-14.5%

###

Collected cytotoxicity at 10 µM values appear next to each entry.
# Assay Remarks: Toxicity liver stage against HepG2, at 10uM
# Format: cell-based
# Design: test concentration 10 uM, cell line HepG2-A16-CD81EGFP
# Recorded Conditions: human, HepG2-A16-CD81EGFP cells; read-out: INHIBITION
Numbers only; they are read as %.

[
  {
    "Compound": "COc1ccsc1C(=O)N1CCCC(n2cncn2)C1 (configuration not stated)",
    "Quantity Kind": "cytotoxicity at 10 µM",
    "Readout Number": 4.6
  },
  {
    "Compound": "Cc1cnn(-c2ccc(C(=O)N3CCN(C)CC3C)cc2)c1 (configuration not stated)",
    "Quantity Kind": "cytotoxicity at 10 µM",
    "Readout Number": 5.16
  },
  {
    "Compound": "Cc1nc(CN(C)c2cc(N3CCCC3CO)ncn2)cs1 (configuration not stated)",
    "Quantity Kind": "cytotoxicity at 10 µM",
    "Readout Number": 4.53
  }
]

Find the measured cytotoxicity at 10 µM of "CC(=O)NCC(=O)N1CCn2cc(CN3CCCCC3)nc2C1" and report it.
-3.34

###

Collected cytotoxicity at 10 µM values appear next to each entry.
# Assay Remarks: Toxicity liver stage against HepG2, at 10uM
# Format: cell-based
# Set-up: test concentration 10 uM, cell line HepG2-A16-CD81EGFP
# Recorded Conditions: human, HepG2-A16-CD81EGFP cells; read-out: INHIBITION
Numbers only; they are read as %.

Would you please look over these solved cases?
[
  {
    "Compound": "O=C(Cc1ccc2c(c1)OCC2)Nc1nn[nH]n1",
    "cytotoxicity at 10 µM / %": 0.548
  },
  {
    "Compound": "Cc1nc(C)n(CC2CCCCN2CCC(=O)Nc2cc(C)on2)n1 (centres undefined)",
    "cytotoxicity at 10 µM / %": -2.86
  },
  {
    "Compound": "Cc1cc(C)cc(NC(=O)c2cnc(N3CCN(C)CC3)nc2C)c1",
    "cytotoxicity at 10 µM / %": -15.5
  },
  {
    "Compound": "CC(Sc1nc(N)cc(N)n1)c1nc(C(C)(C)C)no1 (centres undefined)",
    "cytotoxicity at 10 µM / %": -5.27
  },
  {
    "Compound": "Cc1ncc(C(=O)N2CCCCC2c2nc3cc(F)ccc3[nH]2)c(O)n1 (centres undefined)",
    "cytotoxicity at 10 µM / %": -0.305
  },
  {
    "Compound": "Cc1nccc(N2CCCC(C)(c3[nH]ncc3C(N)=O)C2)n1 (centres undefined)",
    "cytotoxicity at 10 µM / %": 1.86
  }
]

Find the measured cytotoxicity at 10 µM of "O=C(C1CCOCC1)N1CCO[C@H]2[C@H](OCc3ccncc3)CC[C@@H]21" and report it.
-2.53

Find the measured cytotoxicity at 10 µM of "N#Cc1ccc(CNC(=O)NC2CCN(CC(F)F)CC2)cc1" and report it.
-6.96

Find the measured cytotoxicity at 10 µM of Cc1nc(Nc2nncs2)cc(C2CCCN2C)n1 (centres undefined) and report it.
-22.6

Find the measured cytotoxicity at 10 µM of "COc1ccc(F)cc1Cn1nc(C(N)=O)ccc1=O" and report it.
-2.52

Find the measured cytotoxicity at 10 µM of CN(C)C(=O)CN1CCCC(Cc2ccc(N3CCCC3)nn2)C1 (centres undefined) and report it.
3.77

###

# Assay Remarks: Toxicity liver stage against HepG2, at 10uM
# Format: cell-based
# Design: test concentration 10 uM, cell line HepG2-A16-CD81EGFP
# Recorded Conditions: human, HepG2-A16-CD81EGFP cells; read-out: INHIBITION
Quantity Kind: cytotoxicity at 10 µM (%)
Numbers only; they are read as %.

Would you please look over these solved cases?
[
  {
    "Compound": "CN1CCN2CCN(Cc3cnc(NCc4ccccc4)nc3)CC2C1 (stereo unspecified)",
    "Readout Number": -16.8
  },
  {
    "Compound": "COc1ccc(N(C(=O)c2cnc(C)cn2)C(C)C)cc1F",
    "Readout Number": -2.96
  },
  {
    "Compound": "Cn1cc(CN2CCC(F)(F)C3(CCN(c4cnccn4)C3)C2)cn1 (stereo unspecified)",
    "Readout Number": -9.93
  },
  {
    "Compound": "Cc1cc(NC(=O)CN2CCn3c(C)nnc3C2)no1",
    "Readout Number": -3.82
  },
  {
    "Compound": "Cc1cc(C)c2nc(C)cc(C(=O)NC(C)c3nnn[nH]3)c2c1 (stereo unspecified)",
    "Readout Number": 7.24
  }
]

With those in mind, consider the next compound.
Find the measured cytotoxicity at 10 µM of c1ccc2c(c1)OCCCC2NCc1nnc2n1CCCCC2 (stereo unspecified) and report it.
-0.044

###

Collected cytotoxicity at 10 µM values appear next to each entry.
# Assay Remarks: Toxicity liver stage against HepG2, at 10uM
# Type: cell-based
# Set-up: test concentration 10 uM, cell line HepG2-A16-CD81EGFP
# Recorded Conditions: human, HepG2-A16-CD81EGFP cells; read-out: INHIBITION

Would you please look over these solved cases?
[
  {
    "Molecule": "CCCc1cc(C(=O)NC(C)c2ccccc2)n(C)n1 (centres undefined)",
    "cytotoxicity at 10 µM": "-4.45%"
  },
  {
    "Molecule": "Cc1cc(NC(=O)NCCc2ccc(S(N)(=O)=O)cc2)n(C)n1",
    "cytotoxicity at 10 µM": "-3.39%"
  },
  {
    "Molecule": "CN(CC1CC1)C(=O)CN(Cc1cccc(O)c1)C1CCC(O)CC1 (centres undefined)",
    "cytotoxicity at 10 µM": "-1.21%"
  },
  {
    "Molecule": "CC(C)NC(=O)N1CCCC(Cn2cc(-c3ccc(F)cc3)nn2)C1 (centres undefined)",
    "cytotoxicity at 10 µM": "12.5%"
  },
  {
    "Molecule": "O=C(NS(=O)(=O)c1ccccc1C(F)(F)F)c1cccc2c1OCCO2",
    "cytotoxicity at 10 µM": "5.56%"
  },
  {
    "Molecule": "CC(C)(O)c1cn(C2CCN(C(=O)CCC(F)(F)F)CC2)nn1",
    "cytotoxicity at 10 µM": "1.93%"
  },
  {
    "Molecule": "CCC(CO)N(Cc1ccccn1)C(=O)c1ncccc1C (centres undefined)",
    "cytotoxicity at 10 µM": "3.42%"
  },
  {
    "Molecule": "CC(C)c1nnc2n1CCN(C(=O)c1ccnc(N(C)C)c1)C2",
    "cytotoxicity at 10 µM": "3.06%"
  }
]

Find the measured cytotoxicity at 10 µM of CNC(=O)NCC(=O)N(C)C(c1ccc(Cl)cc1)c1cccnc1 (centres undefined) and report it.
9.61%

Find the measured cytotoxicity at 10 µM of "Cc1cc(CN2CCN(C(=O)NCc3ccc(C)s3)CC2)on1" and report it.
-4.56%

Find the measured cytotoxicity at 10 µM of "CC(C)(O)CCc1cccc(C(=O)NCc2cnn3cccnc23)c1" and report it.
-44.8%
